Some compounds, each annotated with its measured lowest phenotypically active concentration.
Tested on: HepG2-TP53BP1-CLTA
Test: lowest phenotypically active concentration; higher = less potent
Details: treatment time: 24 h
Structures can show the parent of a compound that is named as a salt.
Just the number please, in µM, no unit attached.

// below: answered compounds
{"columns": ["compound", "result"],
 "data": [
  ["S=C(S)N1CCCC1 [Pyrrolidinedithiocarbamate ammonium]", 3],
  ["CC(C)(C)c1cc(C(=O)/C=C/c2ccc(C(=O)O)cc2)cc(C(C)(C)C)c1", 9],
  ["CN(C)CC(=O)Nc1ccc2[nH]c(=O)c3ccccc3c2c1 [PJ 34 hydrochloride]", 9]
]}

For the compound `Nc1ccc(-c2cccc3c(=O)cc(N4CCOCC4)oc23)cc1` , what lowest phenotypically active concentration is on record?
9

Can you handle CCCC1(CCC)CCC2(CCN(CCCN(CC)CC)C2)CC1 [Atiprimod dihydrochloride] next?
1

---

Documented lowest phenotypically active concentration across a set of molecules
Tested on: WPMY1-TP53BP1-CLTA
Experiment: lowest phenotypically active concentration; higher = less potent
Details: treatment time: 24 h
Please reply with the bare figure in µM and do not write the unit itself.

Please review the entries below; each comes with its answer.
{"columns": ["molecule", "unit.annotation", "result"],
 "data": [
  ["CN[C@H]1CC[C@@H](c2ccc(Cl)c(Cl)c2)c2ccccc21", "µM", 3],
  ["O=S(=O)(c1cccc2cnccc12)N1CCNCC1", "µM", 9],
  ["Cc1cn(CCN2CCN(c3ccccc3-c3cc(C#N)cc(C(=O)NCCCN4CCCC4)c3)CC2)c2ccccc12", "µM", 3],
  ["CNC(=O)c1ccccc1Sc1ccc2c(/C=C/c3ccccn3)n[nH]c2c1", "µM", 3],
  ["CC(C)COCC(CN(Cc1ccccc1)c1ccccc1)N1CCCC1 (centres undefined)", "µM", 9],
  ["CC(=O)Nc1ccc(NC(=S)NC(=O)c2ccc(C(C)(C)C)cc2)cc1", "µM", 1]
]}

Could you share which lowest phenotypically active concentration value was measured for `COc1ccc(CNC(=O)Nc2ncc([N+](=O)[O-])s2)cc1` ?
9

---

Test system: WPMY1-CANX-COX4
Experiment: phenotypically active (imaging signature differs from DMSO and reproducible) at any of 0.3-9 uM (binary (1 = active, 0 = inactive)); higher = active
Conditions: treatment time: 24 h
Use one of these outcomes when replying: active, inactive

{"columns": ["molecule", "assigned.category"],
 "data": [
  ["Cc1c(O)cccc1C(=O)N[C@@H](CSc1ccccc1)[C@H](O)CN1C[C@H]2CCCC[C@H]2C[C@H]1C(=O)NC(C)(C)C [nelfinavir]", "active"]
]}

Recorded test call requested for CN(C)CCOC(=O)C(c1ccccc1)C1(O)CCCC1 (stereo not drawn) [cyclopentolate]
inactive

Similarly, COc1c(OC2OC(CO)[C@@H](O)[C@H](O)[C@H]2O)cc2c(c1OC)-c1ccc(OC)c(=O)cc1[C@@H](NC(C)=O)CC2 (stereo partly drawn) [Colchicoside] ?
inactive

Could you do the same for `COc1cc2nc(-c3cc(F)ccc3O)nc(N[C@@H]3CNC[C@H]3C(C)(C)O)c2cc1OC` , please?
active

Moving on to the next molecule: `O=[N+]([O-])c1cc([N+](=O)[O-])c(/C=C/c2ccc(Cl)c(Cl)c2)cc1/C=C/c1ccc(Cl)c(Cl)c1`
inactive

Try `C[C@@H]1COCCN1c1cc(C2(S(C)(=O)=O)CC2)nc(-c2cccc3[nH]ccc23)n1` next.
active

Try the molecule `Cc1ccc2nc(NCCN)c3ncc(C)n3c2c1`
active

Note, next up: `O=C(O)c1ccc(N2N=C(Cc3ccccc3)/C(=C/c3ccc(-c4ccccc4F)o3)C2=O)cc1`
inactive

---

System: HepG2-CANX-COX4
Test: phenotypically active (imaging signature differs from DMSO and reproducible) at any of 0.3-9 uM (binary (1 = active, 0 = inactive)); higher = active
Details: treatment time: 24 h
experimental.endpoint: phenotypically active
Please reply with the value in numeric form only.

{"columns": ["molecule", "test.target", "phenotypically active"],
 "data": [
  ["Cc1nc(NC(=O)N2CCC[C@H]2C(N)=O)sc1-c1csc(C(C)(C)C)n1", "HepG2-CANX-COX4", 1],
  ["NS(=O)(=O)c1cc2c(cc1Cl)NC(C1CC3C=CC1C3)NS2(=O)=O (centres undefined) [cyclothiazide]", "HepG2-CANX-COX4", 0],
  ["C=CC(=O)Nc1cccc(Nc2nc(Nc3ccc(Oc4ccnc(C(=O)NC)c4)cc3)ncc2F)c1", "HepG2-CANX-COX4", 0]
]}

Read the next record carefully.
Lab note: need phenotypically active with HepG2-CANX-COX4 for entry O=C(Cn1ccnc1[N+](=O)[O-])NCc1ccccc1 [benznidazole] , please look it up.
0

---

Tested on: A549-ACTB-RAB5A
Assay: phenotypically active (imaging signature differs from DMSO and reproducible) at any of 0.3-9 uM (binary (1 = active, 0 = inactive)); higher = active
Settings: treatment time: 24 h
Where a name gives a salt, the structure may show the parent alone.
Select the matching outcome among active, inactive

Solved cases below.
{"columns": ["compound", "assigned.category"],
 "data": [
  ["O=c1c(O)c(-c2ccc(O)c(O)c2)oc2cc(O)cc(O)c12", "inactive"],
  ["COc1ccc(S(=O)(=O)N(CCO)c2ccccc2CN(C)C/C=C/c2ccc(Cl)cc2)cc1", "active"],
  ["Cc1nc2c(O)cccc2c(=O)[nH]1", "inactive"]
]}

Could you check what this test reported for `C#CCN(C)Cc1ccccc1` ?
inactive

Try `C[C@]12CC[C@@H]3c4ccc(OS(=O)(=O)O)cc4CC[C@H]3[C@@H]1CCC2=O` next.
inactive

Thanks! And `COc1cc2c(NC3CCN(C)CC3)nc(N3CCCN(C)CC3)nc2cc1OCCCN(C)C` ?
inactive

Request: S=C(S)N1CCCC1 [Pyrrolidinedithiocarbamate ammonium]
active

Also need `CCCS(=O)(=O)Nc1ccc(F)c(C(=O)c2c[nH]c3ncc(Cl)cc23)c1F` , thanks.
active

Again, but for CC1Cc2ccccc2N1NC(=O)c1ccc(Cl)c(S(N)(=O)=O)c1 (stereo not given) [indapamide]
inactive

And `Cc1cc(Nc2ccc(NC(=O)c3ccc(Nc4ccnc5ccccc45)cc3)cc2)nc(N)n1` ?
active

Okay, and `Cc1c(F)cc(C(=O)NC2CC2)cc1-c1ccc(C(=O)NCC(C)(C)C)cn1` ?
inactive

For `O=C(O)c1cc(=O)c(O)c(C(=O)O)o1` then?
inactive

Quick one: `Cc1cccc(-c2nn(C(=S)Nc3ccccc3)cc2-c2ccnc3ccccc23)n1`
inactive

Note, next up: `COc1cc(NC(=O)c2cccc(-n3cc(NC(=O)Nc4cccc(C)c4)cn3)c2)cc(OC)c1OC`
active

Then what about the compound `Nc1cc(-c2ccncc2)c[nH]c1=O` ?
inactive

Consider next the compound `COc1c(C=O)c(O)cc2c1C(=O)c1ccccc1C2=O` in the same way.
active

Thanks! And `COc1ccc2cc(CCC(C)=O)ccc2c1` ?
inactive

Record: CCOC(=O)C(C)(C)Oc1ccc(Cl)cc1 [Clofibrate]
inactive

Try the compound C[C@@H](Nc1ncnc2[nH]c(-c3ccc(O)cc3)cc12)c1ccccc1 [PKI 166 hydrochloride]
active

How about CCC1(C)OC(=O)N(C)C1=O (stereo not given) ?
inactive

---

Tested on: WPMY1-TUBA1B-RELA
Test: phenotypically active (imaging signature differs from DMSO and reproducible) at any of 0.3-9 uM (binary (1 = active, 0 = inactive)); higher = active
Settings: treatment time: 24 h
Structures can show the parent of a compound that is named as a salt.
Respond with a class label; see true (1) (active), false (0) (inactive)

Here are 5 compounds together with their reported answers.
{"columns": ["compound", "assigned.category"],
 "data": [
  ["COc1c(O[C@@H]2O[C@H](CO)[C@@H](O)[C@H](O)[C@H]2O)cc2c(c1OC)-c1ccc(SC)c(=O)cc1[C@@H](NC(C)=O)CC2 [Thiocolchicoside]", "false (0)"],
  ["CC(C)Cc1ccc(C(C)C(=O)O)cc1 (stereo not drawn)", "false (0)"],
  ["Cc1nc2c(O)cccc2c(=O)[nH]1", "false (0)"],
  ["CC#CC(=O)N1CCC[C@H]1c1nc(-c2ccc(C(=O)Nc3ccccn3)cc2)c2c(N)nccn12", "false (0)"],
  ["CSc1ccc(C(=O)c2[nH]c(=O)[nH]c2C)cc1", "false (0)"]
]}

Dear all, I need the recorded test outcome for `N=C1NC(=O)/C(=C\c2ccc(O)cc2)S1` , thank you.
false (0)

Follow-up entry: `Cc1cccc(C)c1OCC(=O)N[C@@H](Cc1ccccc1)[C@@H](O)C[C@H](Cc1ccccc1)NC(=O)[C@H](C(C)C)N1CCCNC1=O`
false (0)

Also CN(CCOc1ccc(C[C@H](Nc2ccccc2C(=O)c2ccccc2)C(=O)O)cc1)c1ccccn1 [GW 1929 hydrochloride] , if possible.
false (0)

Then `COc1ccc(-c2cnc(-c3cccc4c3-c3ccccc3C4=O)o2)cc1` ?
true (1)

Would you mind doing `CC(C)c1c(C(=O)Nc2ccccc2)c(-c2ccccc2)c(-c2ccc(F)cc2)n1CC[C@@H](O)C[C@@H](O)CC(=O)O` as well?
true (1)

Then what about the compound `C=C[C@H]1[C@H](O[C@@H]2O[C@H](CO)[C@@H](O)[C@H](O)[C@H]2O)OC=C2C(=O)NCC[C@H]21` ?
false (0)

For CC1(COc2ccc(CC3SC(=O)NC3=O)cc2)CCCCC1 (stereo not drawn) then?
false (0)

Same lookup for COc1ccc(N2C(=O)CSC2c2cccc(Br)c2)c(OC)c1 (stereo not drawn) , please.
true (1)

Queued: `N#C/C(=C/c1ccc(-c2cc(Cl)ccc2Cl)o1)C(=O)Nc1cccc2ncccc12`
false (0)

Next: O=C(NCC1CCCCN1)c1cc(OCC(F)(F)F)ccc1OCC(F)(F)F (stereo not drawn) [flecainide]
false (0)

Similarly, `COc1ccc(C(=O)C2CCN(CC(=O)N(Cc3nc4c(c(=O)[nH]3)COCC4)CC3CC3)CC2)cc1` ?
false (0)

Further, for `CCCCCCCCCCCCCCCC(=O)C(F)(F)F` ?
false (0)

Try this compound next: CC1=C(CC(=O)O)c2cc(F)ccc2/C1=C\c1ccc(S(C)=O)cc1 (stereo not drawn)
false (0)
